Hi there, I'd appreciate the recorded kon for every entry that follows.
biological target: T1, hFLAG-EGF34+NRR-His6 (101V), the human Notch1 NRR immunogen (human Notch1 V1307-Q1733) (human, UniProt P46531 1307-1733); test: SPR (BIAcore-3000), IgG captured on rabbit anti-human IgG, NRR1-ECD protein injected 3.9-500 nM, 25 C, 1:1 Langmuir
T1 construct: Secreted from Sf-9 cells; also called hNotch1 NRR; human NRR1
T1 sequence (P46531 other isoform, or with tags, fused parts or gaps limits assumed): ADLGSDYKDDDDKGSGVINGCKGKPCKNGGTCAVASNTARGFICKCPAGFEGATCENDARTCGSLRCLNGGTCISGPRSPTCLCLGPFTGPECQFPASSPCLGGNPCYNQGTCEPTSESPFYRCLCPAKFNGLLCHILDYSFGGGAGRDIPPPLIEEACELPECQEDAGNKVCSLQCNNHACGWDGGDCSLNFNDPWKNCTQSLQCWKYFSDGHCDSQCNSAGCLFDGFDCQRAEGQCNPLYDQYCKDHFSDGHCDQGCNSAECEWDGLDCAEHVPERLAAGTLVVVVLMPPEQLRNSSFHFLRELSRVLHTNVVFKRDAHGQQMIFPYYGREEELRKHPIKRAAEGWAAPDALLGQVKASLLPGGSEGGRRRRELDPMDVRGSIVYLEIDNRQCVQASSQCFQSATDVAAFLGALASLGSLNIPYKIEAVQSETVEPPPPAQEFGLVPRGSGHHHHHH
// unit must come after the numeric part

{"binder": "Antibody A-2 (antibody, IgG1, V domains shown, also called Antibody A-2-hIgG1) VH: EVQLVESGGGLVQPGGSLRLSCAASGFTFSSYWIHWVRQAPGKGLEWVARINPPNRSNQYADSVKGRFTISADTSKNTAYLQMNSLRAEDTAVYYCARGSGFRWVMDYWGQGTLVTVSS VL: DIQMTQSPSSLSASVGDRVTITCRASQDVSTAVAWYQQKPGKAPKLLIYSASFLYSGVPSRFSGSGSGTDFTLTISSLQPEDFATYYCQQFYTTPSTFGQGTKVEIKR", "readout": "kon", "recorded.measurement": "87000 M⁻¹ s⁻¹"}
{"binder": "Antibody A (antibody, IgG1, V domains shown, also called anti-Notch1 NRR Antibody A; Antibody A-hIgG1) VH: EVQLVESGGGLVQPGGSLRLSCAASGFTFSSYWIHWVRQAPGKGLEWVARINPSNGSTNYADSVKGRFTISADTSKNTAYLQMNSLRAEDTAVYYCARGSGFRWVMDYWGQGTLVTVSS VL: DIQMTQSPSSLSASVGDRVTITCRASQDVSTAVAWYQQKPGKAPKLLIYSASFLYSGVPSRFSGSGSGTDFTLTISSLQPEDFATYYCQQSYTTPPTFGQGTKVEIKR", "readout": "kon", "recorded.measurement": "82000 M⁻¹ s⁻¹"}

Query Antibody A-1 (antibody, IgG1, V domains shown, also called Antibody A-1-hIgG1) VH: EVQLVESGGGLVQPGGSLRLSCAASGFTFSSYWIHWVRQAPGKGLEWVARINPPNGSAHYADSVKGRFTISADTSKNTAYLQMNSLRAEDTAVYYCARGSGFRWVMDYWGQGTLVTVSS VL: DIQMTQSPSSLSASVGDRVTITCRASQDVSTAVAWYQQKPGKAPKLLIYSASFLYSGVPSRFSGSGSGTDFTLTISSLQPEDFATYYCQQSYTTPATFGQGTKVEIKR yields kon of 67000 M⁻¹ s⁻¹

Origin of the recorded values: patent US20180112005A1
